EXPERIMENTAL PROTOCOL: yeast display, Sf9 membrane polyspecificity reagent, FACS + sequencing; frameworks hold sequencing errors
METRIC: polyreactivity (PSR sort gate)

Consider the following illustrative entries.
{"columns": ["SEQUENCE CHAIN", "RESULT"],
 "data": [
  ["QVQLVESGGGLVQAGGTLRLSCAASGFTFSSYTVGWYRQAPRKERELVASISSGGSTNYADSVKGRFTISRDNAKNTVYLQMNSLIPEDTAVFYCAAGTPCISFYDVCSGYDYWGQGTQVTVSS", "low polyreactivity"],
  ["QVQLVDSGGGLVQAGGSLRLSCAASGSTFTYNSMGGYRQAPGKERELVAAITWSSDITYYADSVKGRFTISRDNAKNTVYLQMNSLIAEDTAVYYCAAYLFGPSIDDYPAFYYDYGYWGQGTQVTVSS", "low polyreactivity"],
  ["QVHLVESGGGLVQAGGSLRLSCAASGSTIRRYAMGWYRQAPGTERELVASITNRGGSTYYADSVKGLFTISRDNAKNTFYLQMNSLKPEDTAVYYCAKKGVYGPLNEYWGQGTQVTVSS", "high polyreactivity"],
  ["QVQLVESGGGLVQAGGSLRLSCAASGITFATNAMGWYRQAPGKERELVAAISWSGGSTYYADSVKGRFTISRDNAKNTVYLQMNSLKPEDTAVYYCATGYSVWYDYWGQGTQVTLSS", "low polyreactivity"]
]}

Query: Return polyreactivity (PSR sort gate) (reported value) for this sequence: QVQLVESGGGLVQAGGSLRLSCAASGSIFRTYAMGWYRQAPGKERELVATITFGGVSTYYADSVKGRFTISRDNAKITVYLQMNSLKPEDTAVYYCAADVYTRFWRVYRFDYWGQGTQVTVSS
Reply: low polyreactivity

Query: Using the record for QVQLVESGGGLVQAGGSLRLTCGASGRIFSFYVMGWYRQAPGKERELVAAISLSGGSTYYADSVKGRFTISRDNAKNTVYLQMNSLKPEDTAVYYCAARYASPRYKSKMDYWGQGTQVTVSS , state its measured polyreactivity (PSR sort gate).
Reply: high polyreactivity

Query: Assign polyreactivity (PSR sort gate) to the following record: QVQLVESGGGLVQVGGSLRLSCAASGFTFLGYAMGWYRQAPGKEREMVAAITTGGGSTYYAVSVKGRFTISRDNATTTVYLQMNSLKPEDTAVYYCAARRNVRPRYGYWGQGTQVTVSS
Reply: high polyreactivity

Query: Supply recorded polyreactivity (PSR sort gate) for QVQLVESRGVLVQAGGSLRLSCAASGFTFDYNAMGWYRQAPGKERELVAVISSSGSRTYYADSVKGRFTISRDNAKNTVYLQMNSLKPVDTAVYYCARDNWQWYPSTWYDYWGQGTQVTVSS here.
Reply: high polyreactivity
